Tested on: Plasmodium falciparum
ASSAY_PROTOCOL: Confirmatory screen in NF54 nanoGlo assay, in single point, at 2uM, 72h
Type: functional, Erythrocyte
TEST_CONDITIONS: timepoint 72 hour
Among all 4,800 compounds or so, about 420 (8.8%) showed an effect of 50% or more. This is one part of a sample in which strong results are shown more often than they occur.

- COMPOUND: "CCC(C)(CC)[C@@](O)(C#CC[N+]1(Cc2ccccc2)CCCCC1)c1ccccc1"
  TARGET_UNDER_TEST: "Plasmodium falciparum"
  % Inhibition: "7%"
- COMPOUND: "Oc1ccc2ncccc2c1[C@@H](Nc1ccccn1)c1cccc(Br)c1"
  TARGET_UNDER_TEST: "Plasmodium falciparum"
  % Inhibition: "67%"
- COMPOUND: "CNS(=O)(=O)CC(=O)Nc1cc(Br)c(F)cc1F"
  TARGET_UNDER_TEST: "Plasmodium falciparum"
  % Inhibition: "-12%"
- COMPOUND: "C[C@H]1CN(Cc2cc3c(cc2Br)OCO3)CCN1S(C)(=O)=O"
  TARGET_UNDER_TEST: "Plasmodium falciparum"
  % Inhibition: "-2%"
- COMPOUND: "c1ccc2cc(-c3ccc4ccccc4n3)ccc2c1"
  TARGET_UNDER_TEST: "Plasmodium falciparum"
  % Inhibition: "-1%"
- COMPOUND: "COc1cc(OC)cc(C2(O)CCN(C(=O)CCc3ccccc3F)CC2)c1"
  TARGET_UNDER_TEST: "Plasmodium falciparum"
  % Inhibition: "-10%"
- COMPOUND: "Cc1nnc(NC(=O)[C@H](C)c2ccc(-c3ccccc3)c(F)c2)s1"
  TARGET_UNDER_TEST: "Plasmodium falciparum"
  % Inhibition: "-19%"
- COMPOUND: "Cc1ccccc1CNC(=O)CN(C(C)C)C1CCOCC1"
  TARGET_UNDER_TEST: "Plasmodium falciparum"
  % Inhibition: "21%"
- COMPOUND: "COc1ccc(-n2nc(C(=O)N3CCN(c4ccccc4)CC3)c(=O)cc2OC)cc1"
  TARGET_UNDER_TEST: "Plasmodium falciparum"
  % Inhibition: "-5%"
- COMPOUND: "c1ccc(-c2cn[nH]c2N2CCNCC2)cc1"
  TARGET_UNDER_TEST: "Plasmodium falciparum"
  % Inhibition: "-7%"
- COMPOUND: "Cc1cc(C(=O)N[C@@H](C)CO)c(C)n1-c1nccs1"
  TARGET_UNDER_TEST: "Plasmodium falciparum"
  % Inhibition: "-19%"
- COMPOUND: "CN1CCN(C(=O)CNC(=O)c2cccc(Cl)c2)CC1"
  TARGET_UNDER_TEST: "Plasmodium falciparum"
  % Inhibition: "-2%"
- COMPOUND: "COc1ccc2[nH]c3c(c2c1)CCN(C(=O)c1ccc(C)c(C)c1)[C@@H]3c1ccccc1OC"
  TARGET_UNDER_TEST: "Plasmodium falciparum"
  % Inhibition: "84%"
- COMPOUND: "OC1CCC(Nc2cncc(-n3cccn3)n2)CC1 (stereo not drawn)"
  TARGET_UNDER_TEST: "Plasmodium falciparum"
  % Inhibition: "-2%"
- COMPOUND: "COc1cc(-c2nc3ccccc3s2)ccc1OCc1cccc2ccccc12"
  TARGET_UNDER_TEST: "Plasmodium falciparum"
  % Inhibition: "-7%"
- COMPOUND: "Cc1cc(C)n(-c2c(C)[nH]c3ccccc23)n1"
  TARGET_UNDER_TEST: "Plasmodium falciparum"
  % Inhibition: "-7%"
- COMPOUND: "Cc1cc(CN(C)c2cc(C3CC3)nc(N(C)Cc3cc(C)on3)n2)no1"
  TARGET_UNDER_TEST: "Plasmodium falciparum"
  % Inhibition: "-13%"
- COMPOUND: "C[C@@H](CCc1ccccc1)NC(=O)c1cnn2c3c(cnc12)CCCC3"
  TARGET_UNDER_TEST: "Plasmodium falciparum"
  % Inhibition: "-8%"
- COMPOUND: "Cc1c(C)c2ccc(NC(=O)c3cc4ccccc4o3)cc2[nH]c1=O"
  TARGET_UNDER_TEST: "Plasmodium falciparum"
  % Inhibition: "74%"
- COMPOUND: "CC[C@H]1Cn2c(C(=O)NCc3ccc4c(c3)OCO4)cc3c(Cl)ccc(c32)O1"
  TARGET_UNDER_TEST: "Plasmodium falciparum"
  % Inhibition: "-11%"
- COMPOUND: "O=C(Cc1c[nH]c2ccccc12)N[C@H]1CCS(=O)(=O)C1"
  TARGET_UNDER_TEST: "Plasmodium falciparum"
  % Inhibition: "-4%"
- COMPOUND: "CC(C)(C)CC(=O)NC[C@H]1OC[C@@H](NC2CCCC2)[C@@H]1O"
  TARGET_UNDER_TEST: "Plasmodium falciparum"
  % Inhibition: "3%"
- COMPOUND: "c1ccc2c[n+](Cc3ccc4ccccc4n3)ccc2c1"
  TARGET_UNDER_TEST: "Plasmodium falciparum"
  % Inhibition: "50%"
